Every entry's value here was drawn from patent US20250213555A1.

Target of assay: human Nav 1.8 (Homo sapiens)
Sequence (Q9Y5Y9 126-399 limits assumed): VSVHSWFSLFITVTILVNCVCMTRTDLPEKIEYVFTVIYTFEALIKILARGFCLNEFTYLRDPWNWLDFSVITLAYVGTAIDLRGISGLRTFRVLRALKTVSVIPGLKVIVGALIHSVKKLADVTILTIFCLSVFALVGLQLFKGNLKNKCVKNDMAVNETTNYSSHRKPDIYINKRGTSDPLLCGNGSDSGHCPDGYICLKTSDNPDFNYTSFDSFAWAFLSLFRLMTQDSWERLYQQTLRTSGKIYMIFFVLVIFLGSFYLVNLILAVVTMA
Sequence (Q9Y5Y9 660-890 limits assumed): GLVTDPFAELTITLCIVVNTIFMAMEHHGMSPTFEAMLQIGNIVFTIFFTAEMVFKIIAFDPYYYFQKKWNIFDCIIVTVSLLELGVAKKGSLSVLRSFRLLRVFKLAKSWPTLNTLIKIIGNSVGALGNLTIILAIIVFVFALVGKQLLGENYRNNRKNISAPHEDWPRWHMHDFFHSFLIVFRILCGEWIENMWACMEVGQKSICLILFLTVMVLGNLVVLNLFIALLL
Sequence (Q9Y5Y9 1148-1722 limits assumed): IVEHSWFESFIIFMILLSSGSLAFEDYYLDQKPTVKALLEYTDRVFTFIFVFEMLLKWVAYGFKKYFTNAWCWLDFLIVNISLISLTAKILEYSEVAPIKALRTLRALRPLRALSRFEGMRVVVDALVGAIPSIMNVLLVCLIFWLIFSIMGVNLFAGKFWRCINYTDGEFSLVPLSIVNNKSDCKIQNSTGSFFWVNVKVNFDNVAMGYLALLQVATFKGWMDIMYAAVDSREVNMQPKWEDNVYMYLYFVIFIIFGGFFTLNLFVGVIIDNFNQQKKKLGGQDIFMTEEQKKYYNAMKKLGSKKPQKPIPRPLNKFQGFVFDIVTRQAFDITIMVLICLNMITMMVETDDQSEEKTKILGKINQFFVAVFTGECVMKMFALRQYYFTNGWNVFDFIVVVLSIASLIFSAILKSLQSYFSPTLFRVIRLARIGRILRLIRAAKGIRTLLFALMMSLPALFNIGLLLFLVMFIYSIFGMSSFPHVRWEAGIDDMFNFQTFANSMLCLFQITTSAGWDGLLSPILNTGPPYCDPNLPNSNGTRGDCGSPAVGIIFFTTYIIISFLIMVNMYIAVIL
Assay remarks: E-VIPR assay detecting and measuring Nav inhibition properties
Format: cell-based
Reported conditions: HEK cells expressing a truncated form of human Nav 1.8; compound numbers without "*" (not marked as run in the presence of human serum); read-out: measured IC50 value in the E-VIPR Assay
pIC50: −log10 of the molar value.

{"columns": ["Compound", "Target of assay", "pIC50"],
 "data": [
  ["COCCOc1c([C@H]2[C@H](C(=O)Nc3ccnc(C(N)=O)n3)O[C@@](C)(C(F)(F)F)[C@H]2C)ccc(F)c1C (single isomer, unassigned)", "human Nav 1.8 (Homo sapiens)", "> 8.00"],
  ["C[C@H]1[C@@H](c2ccc(F)c(F)c2OCC2(CO)COC2)[C@H](C(=O)Nc2ccnc(C(N)=O)c2)O[C@@]1(C)C(F)(F)F", "human Nav 1.8 (Homo sapiens)", "6.00 to 7.00"],
  ["COc1c(C2C(C(=O)Nc3ccnc(C(=O)N4CCC(N(C)C)C4)c3)OC(C)(C(F)(F)F)C2C)ccc(F)c1F (single isomer, unassigned)", "human Nav 1.8 (Homo sapiens)", "> 8.00"],
  ["C[C@@H](O)COc1c([C@H]2[C@H](C(=O)Nc3ccnc(C(N)=O)c3)O[C@@](C)(C(F)(F)F)[C@H]2C)ccc(F)c1F", "human Nav 1.8 (Homo sapiens)", "7.00 to 8.00"],
  ["C[C@H]1[C@@H](c2ccc(F)c(F)c2OCCc2cn(C)cn2)[C@H](C(=O)Nc2ccnc(C(N)=O)c2)O[C@@]1(C)C(F)(F)F", "human Nav 1.8 (Homo sapiens)", "> 8.00"],
  ["C[C@H]1[C@@H](c2ccc(F)c(F)c2OCc2cnco2)[C@H](C(=O)Nc2ccnc(C(N)=O)c2)O[C@@]1(C)C(F)(F)F", "human Nav 1.8 (Homo sapiens)", "> 8.00"],
  ["CO[C@H](CO)COc1c([C@H]2[C@H](C(=O)Nc3ccnc(C(N)=O)c3)O[C@@](C)(C(F)(F)F)[C@H]2C)ccc(F)c1F (single isomer, unassigned) [Compound 161]", "human Nav 1.8 (Homo sapiens)", "7.00 to 8.00"],
  ["C[C@H]1[C@@H](c2ccc(F)c(F)c2OCC2(F)CNC2)[C@H](C(=O)Nc2ccnc(C(N)=O)c2)O[C@@]1(C)C(F)(F)F", "human Nav 1.8 (Homo sapiens)", "6.00 to 7.00"],
  ["C[C@H]1[C@@H](c2ccc(F)c(F)c2OC2CN(C)C2)[C@H](C(=O)Nc2ccnc(C(N)=O)c2)O[C@@]1(C)C(F)(F)F", "human Nav 1.8 (Homo sapiens)", "7.00 to 8.00"],
  ["COCC[C@@]1(C)C[C@H](c2ccc(F)c(F)c2OC)[C@@H](C(=O)Nc2ccnc(C(N)=O)c2)O1 (single isomer, unassigned)", "human Nav 1.8 (Homo sapiens)", "6.00 to 7.00"],
  ["COc1c([C@H]2[C@H](C(=O)Nc3ccnc(C(=O)N4C[C@@H](F)[C@@H](N)C4)c3)O[C@@](C)(C(F)(F)F)[C@H]2C)ccc(F)c1F", "human Nav 1.8 (Homo sapiens)", "> 8.00"],
  ["CC(C)(O)COc1c([C@@H]2C[C@](C)(C(F)(F)F)O[C@H]2C(=O)Nc2ccnc(C(N)=O)c2)ccc(F)c1F (relative stereo)", "human Nav 1.8 (Homo sapiens)", "6.00 to 7.00"],
  ["COc1c(Cl)cc([C@H]2[C@H](C(=O)Nc3ccnc(C(N)=O)c3)O[C@@](C)(C(F)(F)F)[C@H]2C)c(OC)c1F", "human Nav 1.8 (Homo sapiens)", "> 8.00"],
  ["C[C@@H](Oc1c([C@H]2[C@H](C(=O)Nc3ccnc(C(N)=O)c3)O[C@@](C)(C(F)(F)F)[C@H]2C)ccc(F)c1F)C1COC1", "human Nav 1.8 (Homo sapiens)", "> 8.00"],
  ["C[C@H]1[C@@H](c2ccc(F)c(F)c2OC2CCOCC2)[C@H](C(=O)Nc2ccnc(C(N)=O)c2)O[C@@]1(C)C(F)(F)F", "human Nav 1.8 (Homo sapiens)", "> 8.00"],
  ["COCC1(C)CC(c2ccc(F)c(F)c2OC)C(C(=O)Nc2ccnc(C(N)=O)c2)O1 (single isomer, unassigned) [Compound 28]", "human Nav 1.8 (Homo sapiens)", "6.00 to 7.00"],
  ["COc1c([C@H]2[C@H](C(=O)Nc3cc(C(=O)N4CCN(C)CC4)ncn3)O[C@@](C)(C(F)(F)F)[C@H]2C)ccc(F)c1F", "human Nav 1.8 (Homo sapiens)", "6.00 to 7.00"],
  ["CC1CN(CCOc2c([C@H]3[C@H](C(=O)Nc4ccnc(C(N)=O)c4)O[C@@](C)(C(F)(F)F)[C@H]3C)ccc(F)c2F)CCO1 (some centres unmarked)", "human Nav 1.8 (Homo sapiens)", "> 8.00"],
  ["COc1c([C@H]2[C@H](C(=O)Nc3cc(C(=O)N4CCNCC4)ccn3)O[C@@](C)(C(F)(F)F)[C@H]2C)ccc(F)c1F", "human Nav 1.8 (Homo sapiens)", "7.00 to 8.00"],
  ["C[C@H]1[C@@H](c2cc(Br)c(F)c(F)c2O)[C@H](C(=O)Nc2ccnc(C(N)=O)c2)O[C@@]1(C)C(F)(F)F", "human Nav 1.8 (Homo sapiens)", "≤ 6.00"],
  ["CCOc1ccc([C@@H]2[C@@H](C(=O)Nc3ccnc(C(N)=O)c3)O[C@](C)(C(F)(F)F)[C@@H]2C)c2c1OC(F)(F)O2 (single isomer, unassigned)", "human Nav 1.8 (Homo sapiens)", "≤ 6.00"],
  ["CNC(=O)c1cc(NC(=O)[C@@H]2O[C@@](C)(C(F)(F)F)[C@@H](C)[C@H]2c2ccc(F)c(F)c2OC[C@@H](C)N2CC3(COC3)C2)ccn1", "human Nav 1.8 (Homo sapiens)", "6.00 to 7.00"],
  ["C[C@H]1[C@@H](c2ccc(F)c(F)c2OCCN2CCC2)[C@H](C(=O)Nc2ccnc(C(N)=O)c2)O[C@@]1(C)C(F)(F)F", "human Nav 1.8 (Homo sapiens)", "7.00 to 8.00"]
]}
